- method.description: 14C assay: 14CO2 capture from [14C]-carboxyl-labeled dicamba with IPTG-induced recombinant E. coli cells
- settings: IPTG-induced recombinant E. coli cells; 14CO2 from [14C]-carboxyl-labeled dicamba

molecule: 73 (protein, listed as Sphaerobacter thermophilus) MARIDAHAHAQPPEYLDALLASGRYESVRDAEGRIVVRERGSRFLTITPQMHHPEQRVAEMDEAGIDMQILSVTTPQVYFLQGQAAVDLARRCNDYLADIVRSYPTRFRALASVPLTADPDAAVREFVRCLDDLGMVGAIIGSNIDGRPIDDPAFDAFYAEADRRATTLFIHPMVPAGIEVMNPYALAPLVGFMFDTTLAVSRLIFSGFFERYPRVKVLVGHLGAAVPYLAGRLDIGWRSYSDCQGIPHPPTEYIRRLYLDTVSFHAPALRCALETVGPDRIVFGSDYPHVIGDVGGAIASIQQALPATTHDGVLGHTAAELFGVSA
Dicamba Decarboxylase Activity: Low

molecule: 48 (protein, listed as Amycolatopsis mediterranei) MASMKLYGLEEHFVTADVIEAWRRRDPGLAEPMMKWAVASDITPALLDVDGGRIAAMDDAGIDTTVLSLTTPGLQNLDAAEAVALQAPTNDLIAAAVRRHPGRFQGFATLATSAPAAAADELRRAVTELGLNGALVNANSRGRALDAPGFWDIYEAAEDLRAPVYLHPGVPVPAVTEAYYRGFGEPVNSMLATGAFGWHYDAGLTILRMIVAGVFDRFPGLQVILGHWGEVVLFYLDRVAAMDKLTALRRPIAEYFRSNIFITPGGISSHKYLRWSLETVGVERIMYASDYPFNTERAGSARRFLDTAPVDEAGRERIAYRNWEELIAGIRR
Dicamba Decarboxylase Activity: High
